condition_description: in methyl acetate, 298.15 K
endpoint_name: solubility (mole fraction)
Answer with a number only.

Inquiry: Retrieve solubility (mole fraction) measured for Cc1ccc(S(=O)(=O)NC(=O)NN2CC3CCCC3C2)cc1 (stereo unspecified) and print it.
Reply text: 0.00499

====

condition_description: in chloroform, 288.15 K
endpoint_name: solubility (mole fraction)
Enter a number only.

Inquiry: Fill in solubility (mole fraction) for record Cc1ccc(S(=O)(=O)NC(=O)NN2CC3CCCC3C2)cc1 (stereo unspecified)
Reply text: 0.07

====

condition_description: in toluene, 298.15 K
endpoint_name: solubility (mole fraction)
# print the numeric value only

Inquiry: Provide one value: measured solubility (mole fraction) of Cc1ccc(S(=O)(=O)NC(=O)NN2CC3CCCC3C2)cc1 (stereo unspecified)
Reply text: 0.000789
